experimental system: recombinant human Myt1 (full length PKMYT1) (Homo sapiens (Human), UniProt Q99640)
Sequence (Q99640 whole entry): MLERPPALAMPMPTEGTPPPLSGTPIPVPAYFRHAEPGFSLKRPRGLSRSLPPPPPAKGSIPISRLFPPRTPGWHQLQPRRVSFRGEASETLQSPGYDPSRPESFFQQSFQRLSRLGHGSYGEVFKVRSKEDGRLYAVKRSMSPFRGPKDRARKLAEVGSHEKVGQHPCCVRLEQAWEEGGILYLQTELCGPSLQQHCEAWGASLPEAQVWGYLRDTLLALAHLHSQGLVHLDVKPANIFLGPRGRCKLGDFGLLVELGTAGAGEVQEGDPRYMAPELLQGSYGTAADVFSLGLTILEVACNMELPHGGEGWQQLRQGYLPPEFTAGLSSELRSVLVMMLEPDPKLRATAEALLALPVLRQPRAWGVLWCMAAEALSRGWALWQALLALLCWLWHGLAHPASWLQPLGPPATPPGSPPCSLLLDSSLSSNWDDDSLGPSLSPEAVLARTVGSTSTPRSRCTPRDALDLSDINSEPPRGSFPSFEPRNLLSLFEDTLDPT
procedure details: Recombinant human Myt1 kinase assay (ADP-Glo)
conditions used: 10 μM ATP
pIC50: −log10 of the molar value.
value type: pIC50

For orientation, consider the following solved cases.
molecule smiles: Cc1ccc(NC(=O)C2(C)CC2)c(-c2nc(C(N)=O)c(N)c(-c3c(C)ccc4[nH]ncc34)n2)c1
pIC50: 8.10
--
molecule smiles: Cc1ccc2[nH]ncc2c1-c1cc(-c2ccnc(OCCc3ccncc3)n2)nc(C(N)=O)c1N
pIC50: 7.72
--
molecule smiles: Cc1cccc(-c2nc(C(N)=O)c(N)c(-c3cc(O)ccc3C)n2)c1
pIC50: 7.13
--
molecule smiles: Cc1cccc(-c2nc(C(N)=O)c(N)c(-c3c(C)ccc4[nH]ncc34)n2)c1
pIC50: 7.59

1. Cc1ccc(O)cc1-c1nc(-c2ccc(C#N)cc2)nc(C(N)=O)c1N
2. Cc1ccc2[nH]ncc2c1-c1nc(-c2ccnc(N3CCOCC3)c2)nc(C(N)=O)c1N
Task: When 1 and 2 are compared, which has the higher number for pIC50? Refer to your chosen entry by its label in the reply.
Output: 2

A. Cc1nccc(Nc2cc(C#N)ccc2-c2nc(C(N)=O)c(N)c(-c3c(C)ccc4[nH]ncc34)n2)n1
B. Cc1ccc2[nH]ncc2c1-c1nc(-c2ccc(N3CCOCC3)c(C(F)(F)F)c2)nc(C(N)=O)c1N
Task: Could you check which of A and B has a smaller value for pIC50? Refer to your chosen entry by its label in the reply.
Output: B

a. Cc1ccc2[nH]ncc2c1-c1cc(-c2cccc(OCC(F)(F)F)c2)nc(C(N)=O)c1N
b. Cc1cc(-c2nc(C(N)=O)c(N)c(-c3c(C)ccc4[nH]ncc34)n2)ccc1C#N
c. CCOC(=O)Nc1ccccc1-c1nc(C(N)=O)c(N)c(-c2c(C)ccc3[nH]ncc23)n1
Task: # rank_down: sort by pIC50, max first Write the labels out in the order the request specifies.
Output: c, b, a

1. Cc1ccc2[nH]ncc2c1-c1cc(-c2cccc(OC3(c4ncccn4)COC3)n2)nc(C(N)=O)c1N
2. Cc1ccc2[nH]ncc2c1-c1nc(-c2ccccc2NC(=O)C2(C(F)(F)F)CC2)nc(C(N)=O)c1N
Task: When 1 and 2 are compared, which has the higher number for pIC50? Refer to your chosen entry by its label in the reply.
Output: 2
(2: 8.40, 1: 7.68)
